Test system: SUDHL5
assay explanation: Induction of cytotoxicity in SUDHL5 cells, CellTiter-Glo (Assay 6)
Assay type: cell-based
condition context: SUDHL5, 5 hours incubation, median, read-out: Cytotox SUDHL5 [M] (median)
measure name: IC50 (M)

CCc1c2c(nn1C)COCc1ccccc1Cn1c(C(=O)O)c(CCCOc3cccc4ccccc34)c3ccc(F)c-2c31 (single isomer, unassigned; enantiomer 1) [Example 71] = 1.9e-06
CCc1c2c(nn1C)COCc1ccccc1Cn1c(C(=O)O)c(CCCOc3cccc4cc(F)ccc34)c3ccc(Cl)c-2c31 (single isomer, unassigned; enantiomer 1) [Example 55] = 6.4e-07

* * *

Test system: SUDHL5
assay explanation: Induction of cytotoxicity in SUDHL5 cells, CellTiter-Glo (Assay 6)
Assay type: cell-based
condition context: read-out: Cytotox SUDHL5 [M] (median), SUDHL5, 5 hours incubation
Listing: IC50 of selected compounds
measure name: IC50 (M)

Cc1c2c(nn1C)CNCc1ccccc1Cn1c(C(=O)O)c(CCCOc3cccc4ccccc34)c3cccc-2c31 (single isomer, unassigned; enantiomer 1) [Example 12] = 1.9e-06
Cc1c2c(nn1C)CNCc1ccccc1Cn1c(C(=O)O)c(CCCOc3cccc4ccccc34)c3cccc-2c31 (single isomer, unassigned; enantiomer 2) [Example 13] = 1.7e-05

* * *

Test system: SUDHL10
assay explanation: Induction of cytotoxicity in SUDHL10 cells, CellTiter-Glo (Assay 6)
Type: cell-based
condition context: SUDHL10, 5 hours incubation, median, read-out: Cytotox SUDHL10 [M] (median)
IC50 values, listed per item
measure name: IC50 (M)

Cc1c2c(nn1C)COCc1ccccc1Cn1c(C(=O)O)c(CCCOc3cccc4cc(F)ccc34)c3ccc(Cl)c-2c31 (single isomer, unassigned; enantiomer 2) = 2.8e-06
Cc1c2c(nn1C)COCc1cccnc1Cn1c(C(=O)O)c(CCCOc3cccc4ccccc34)c3ccc(Cl)c-2c31 (single isomer, unassigned; enantiomer 2) = 1.4e-05
CCc1c2c(nn1C)COCc1ccccc1Cn1c(C(=O)O)c(CCCOc3cccc4ccccc34)c3ccc(F)c-2c31 (racemic) [Example 70] = 6.1e-06
CCNCC.Cc1c2c(nn1C)COCc1ncccc1Cn1c(C(=O)O)c(CCCOc3cccc4ccccc34)c3ccc(Cl)c-2c31 (single isomer, unassigned; enantiomer 1) = 2.9e-06
Cc1c2c(nn1C)CN(S(=O)(=O)c1ccc(N3CCOCC3)nc1)Cc1ccccc1Cn1c(C(=O)O)c(CCCOc3cccc4ccccc34)c3cccc-2c31 (single isomer, unassigned; enantiomer 1) [Example 18] = 3.8e-06

* * *

experimental target: MCL-1 (Homo sapiens, UniProt Q07820, K194A/K197A/R201A)
Sequence (Q07820 173-321 K194A/K197A/R201A, looked up): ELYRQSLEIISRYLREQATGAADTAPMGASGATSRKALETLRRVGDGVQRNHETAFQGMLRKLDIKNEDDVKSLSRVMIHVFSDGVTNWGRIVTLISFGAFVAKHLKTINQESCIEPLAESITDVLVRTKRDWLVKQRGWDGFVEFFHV
assay explanation: Protein-compound interaction assay, surface plasmon resonance (SPR assay, Assay 8)
Assay type: binding
condition context: read-out: kon [1/M 1/s], SPR, immobilized MBP-MCL-1, 25° C.; geometric mean
measure name: kon (M⁻¹ s⁻¹)

Cc1c2c(nn1C)COCc1ccccc1Cn1c(C(=O)O)c(CCCOc3cccc4cc(F)ccc34)c3ccc(F)c-2c31 (single isomer, unassigned; enantiomer 1) = 8e+06
Cc1c2c(nn1C)COCc1ccccc1Cn1c(C(=O)O)c(CCCOc3cccc4cc(F)ccc34)c3ccc(Cl)c-2c31 (racemic) [Example 48] = 750000
Cc1c2c(nn1C)COCc1ccccc1Cn1c(C(=O)O)c(CCCOc3cccc4ccccc34)c3ccc(Cl)c-2c31 (single isomer, unassigned; enantiomer 1) = 2.4e+06
Cc1c2c(nn1C)COCc1ccccc1Cn1c(C(=O)O)c(CCCOc3cccc4cc(F)ccc34)c3ccc(Cl)c-2c31 (single isomer, unassigned; enantiomer 1) [Example 49] = 1.9e+06

Where do these numbers come from? They come from patent US20210253598A1.
